Tested on: Leukemia L1210
Assay: Activity against Leukemia L1210, intraperitoneal, increase in life span of mice
Format: in vivo, female mice (BDF1 family)
Conditions: ip; O.D./ILS30
The threshold is inclusive: Therapeutic ratio TR of exactly 50 counts as T; values below receive F.

1) CCOCCO[C@H]1O[C@H](CO)[C@H](N(CC(C)C)C(=O)N(CCCl)N=O)[C@H](O)[C@H]1O [Compound 131]: F
2) CC(CN1CCOCC1)O[C@@H]1O[C@H](CN(C(=O)N(CCCl)N=O)C(C)(C)C)[C@@H](O)[C@H](O)[C@H]1O (stereo partly drawn) [Compound 200]: F
3) CC(C)CN(C[C@H]1O[C@@H](OC2CCCCC2)[C@H](O)[C@@H]1O)C(=O)N(CCCl)N=O [Compound 169]: F

-- ask Please tell me: is the compound CCCCO[C@H]1O[C@H](CO)[C@H](O)[C@H](O)[C@H]1N(C)C(=O)N(CCCl)N=O [Compound 118] at or over 50 in terms of Therapeutic ratio TR?
-- reply F

-- ask Please tell me: is the compound CC(C)(C)N(C[C@H]1O[C@H](OCC2CCCO2)[C@H](O)[C@@H](O)[C@@H]1O)C(=O)N(CCCl)N=O (stereo partly drawn) [Compound 193] at or over 50 in terms of Therapeutic ratio TR?
-- reply T

The origin of these recorded values is patent US4593090A.
